assay-system: PI3K-alpha (Homo sapiens, UniProt P42336)
Sequence (P42336 whole entry, species assumed): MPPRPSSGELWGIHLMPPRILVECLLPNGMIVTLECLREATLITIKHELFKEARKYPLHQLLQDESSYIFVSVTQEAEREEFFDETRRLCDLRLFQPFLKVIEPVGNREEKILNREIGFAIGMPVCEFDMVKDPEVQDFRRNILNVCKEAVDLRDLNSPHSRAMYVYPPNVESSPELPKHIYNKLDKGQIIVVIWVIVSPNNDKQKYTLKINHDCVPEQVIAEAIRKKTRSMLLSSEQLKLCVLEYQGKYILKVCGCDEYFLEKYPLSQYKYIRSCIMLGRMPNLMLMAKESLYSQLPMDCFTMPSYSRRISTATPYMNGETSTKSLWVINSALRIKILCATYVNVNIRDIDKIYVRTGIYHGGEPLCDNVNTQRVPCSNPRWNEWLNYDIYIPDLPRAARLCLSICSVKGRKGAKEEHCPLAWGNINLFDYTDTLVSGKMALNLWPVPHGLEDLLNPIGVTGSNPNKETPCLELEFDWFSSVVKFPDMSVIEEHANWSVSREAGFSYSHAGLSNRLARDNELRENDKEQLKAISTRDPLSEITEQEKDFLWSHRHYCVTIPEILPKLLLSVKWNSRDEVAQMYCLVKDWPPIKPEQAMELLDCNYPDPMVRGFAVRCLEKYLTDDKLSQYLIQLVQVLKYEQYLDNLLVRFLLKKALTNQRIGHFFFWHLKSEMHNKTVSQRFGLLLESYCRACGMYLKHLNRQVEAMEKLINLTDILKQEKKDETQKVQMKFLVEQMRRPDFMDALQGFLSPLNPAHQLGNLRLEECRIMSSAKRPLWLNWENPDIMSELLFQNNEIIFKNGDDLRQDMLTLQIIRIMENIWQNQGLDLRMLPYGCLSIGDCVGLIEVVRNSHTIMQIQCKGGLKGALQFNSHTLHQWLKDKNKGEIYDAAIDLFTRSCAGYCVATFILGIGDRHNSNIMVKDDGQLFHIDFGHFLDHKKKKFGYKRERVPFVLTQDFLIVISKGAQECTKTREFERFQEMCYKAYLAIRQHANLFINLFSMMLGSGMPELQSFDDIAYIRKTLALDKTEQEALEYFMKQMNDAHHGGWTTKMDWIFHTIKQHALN
Sequence (P27986 whole entry partner, species assumed): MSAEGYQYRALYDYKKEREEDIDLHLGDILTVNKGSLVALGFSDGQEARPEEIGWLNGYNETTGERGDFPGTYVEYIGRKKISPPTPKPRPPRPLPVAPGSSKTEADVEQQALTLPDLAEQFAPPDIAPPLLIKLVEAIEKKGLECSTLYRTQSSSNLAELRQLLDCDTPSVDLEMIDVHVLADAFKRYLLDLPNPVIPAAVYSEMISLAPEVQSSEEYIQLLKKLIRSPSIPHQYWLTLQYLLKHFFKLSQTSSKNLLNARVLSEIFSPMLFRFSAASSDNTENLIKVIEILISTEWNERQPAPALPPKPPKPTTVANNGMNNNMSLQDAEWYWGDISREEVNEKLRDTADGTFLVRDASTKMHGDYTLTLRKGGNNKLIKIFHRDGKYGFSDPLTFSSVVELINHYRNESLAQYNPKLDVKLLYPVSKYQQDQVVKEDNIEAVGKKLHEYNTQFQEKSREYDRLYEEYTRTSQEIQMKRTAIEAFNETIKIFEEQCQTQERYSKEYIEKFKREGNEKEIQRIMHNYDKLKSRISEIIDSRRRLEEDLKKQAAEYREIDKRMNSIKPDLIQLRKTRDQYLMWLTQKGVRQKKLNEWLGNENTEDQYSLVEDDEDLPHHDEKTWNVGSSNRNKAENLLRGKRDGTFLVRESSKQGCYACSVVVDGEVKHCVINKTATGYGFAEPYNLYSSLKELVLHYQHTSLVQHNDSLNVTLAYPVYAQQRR
protocol-notes: PI3K-alpha fluorescence polarization assay
Assay type: biochemical
stated-conditions: read-out: PI3Kα Avg. IC50
Exercise: for every item that follows, state its recorded IC50.
Write down the numeric answer in nM and omit the unit.

Lab note: need IC50 for `COc1ccc2c(c1)c(C=C1Oc3cc(O)cc(O)c3C1=O)c(C)n2CCCN1CCOCC1` on PI3K-alpha (Homo sapiens, UniProt P42336), anyone have it?
8.5

Lab note: need IC50 for `COc1ccc2c(c1)c(/C=C1\Oc3cc(O)cc(O)c3C1=O)c(C(F)(F)F)n2CCO` on PI3K-alpha (Homo sapiens, UniProt P42336), anyone have it?
5

Lab note: need IC50 for `COc1ccc2c(c1)c(/C=C1\Oc3cc(O)cc(F)c3C1=O)c(C)n2CCCN(C)C` on PI3K-alpha (Homo sapiens, UniProt P42336), anyone have it?
29.5

Lab note: need IC50 for `O=C1C(=Cc2c(-c3cccnc3)[nH]c3ccccc23)Oc2cc(O)cc(O)c21` on PI3K-alpha (Homo sapiens, UniProt P42336), anyone have it?
1050

* * *

Exercise: for every item that follows, state its recorded pIC50.
# log scale: pIC50 equals minus log10 of the concentration in mol/L

Lab note: need pIC50 for `COc1ccc2c(c1)c(C=C1Oc3cc(O)cc(O)c3C1=O)cn2CCCCN1CCOCC1` on UniProtKB P42338, anyone have it?
6.87

Lab note: need pIC50 for `COc1ccc2c(c1)c(/C=C1\Oc3cc(O)cc(O)c3C1=O)c(-c1cnn(C)c1)n2CC(=O)N(C)C` on UniProtKB P42338, anyone have it?
7.29

Lab note: need pIC50 for `Cc1[nH]c2ccc(Br)cc2c1/C=C1\Oc2cc(O)cc(O)c2C1=O` on UniProtKB P42338, anyone have it?
6.25

Lab note: need pIC50 for `COc1ccc2c(c1)c(/C=C1\Oc3cc(O)c(Br)cc3C1=O)c(C)n2CCN1CCN(C)CC1` on UniProtKB P42338, anyone have it?
6.03

Lab note: need pIC50 for `COc1ccc2[nH]c(-c3ccccc3)c(/C=C3\Oc4cc(O)ccc4C3=O)c2c1` on UniProtKB P42338, anyone have it?
7.94

Lab note: need pIC50 for COc1ccc2c(c1)c(/C=C1\Oc3cc(O)cc(O)c3C1=O)c(C(=O)N(C)C)n2CCN1CCC(O)C1 (centres unmarked) on UniProtKB P42338, anyone have it?
7.69

Lab note: need pIC50 for `COc1ccc2c(c1)c(/C=C1\Oc3cc(O)cc(O)c3C1=O)cn2CCCN(C)C` on UniProtKB P42338, anyone have it?
6.92

Lab note: need pIC50 for `COc1ccc2[nH]c(-c3cncnc3)c(/C=C3\Oc4cc(O)cc(O)c4C3=O)c2c1` on UniProtKB P42338, anyone have it?
7.36

* * *

assay-system: PI3K-gamma (Homo sapiens)
Sequence (P48736 whole entry, species assumed): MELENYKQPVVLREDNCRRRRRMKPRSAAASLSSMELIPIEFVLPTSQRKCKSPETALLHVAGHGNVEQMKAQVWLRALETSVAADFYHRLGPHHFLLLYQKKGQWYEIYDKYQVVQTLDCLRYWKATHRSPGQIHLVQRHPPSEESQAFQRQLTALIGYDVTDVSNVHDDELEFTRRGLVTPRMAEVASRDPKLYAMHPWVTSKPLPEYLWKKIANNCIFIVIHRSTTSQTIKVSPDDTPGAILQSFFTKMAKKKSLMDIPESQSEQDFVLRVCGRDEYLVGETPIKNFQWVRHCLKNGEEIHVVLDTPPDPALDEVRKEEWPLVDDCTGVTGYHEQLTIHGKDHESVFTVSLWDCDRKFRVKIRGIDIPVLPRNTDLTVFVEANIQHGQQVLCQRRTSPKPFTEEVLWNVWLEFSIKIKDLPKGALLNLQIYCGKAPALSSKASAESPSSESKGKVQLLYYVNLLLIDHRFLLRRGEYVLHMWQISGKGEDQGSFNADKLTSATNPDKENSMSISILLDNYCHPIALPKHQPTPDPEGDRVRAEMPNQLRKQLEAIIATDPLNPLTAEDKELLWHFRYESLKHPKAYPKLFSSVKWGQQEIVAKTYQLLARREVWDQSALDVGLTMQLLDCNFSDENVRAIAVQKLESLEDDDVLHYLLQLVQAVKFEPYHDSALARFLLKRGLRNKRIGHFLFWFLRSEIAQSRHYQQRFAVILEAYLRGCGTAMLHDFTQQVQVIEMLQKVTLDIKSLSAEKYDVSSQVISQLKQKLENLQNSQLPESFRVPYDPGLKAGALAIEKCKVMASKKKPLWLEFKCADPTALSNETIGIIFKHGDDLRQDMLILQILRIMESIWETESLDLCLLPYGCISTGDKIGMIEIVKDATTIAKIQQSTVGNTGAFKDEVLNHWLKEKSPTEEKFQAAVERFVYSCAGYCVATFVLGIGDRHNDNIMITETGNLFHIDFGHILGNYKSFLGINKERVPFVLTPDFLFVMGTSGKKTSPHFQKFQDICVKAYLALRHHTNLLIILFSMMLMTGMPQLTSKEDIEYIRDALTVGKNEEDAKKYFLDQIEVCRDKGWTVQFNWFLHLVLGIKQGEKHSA
protocol-notes: PI3K-gamma fluorescence polarization assay
Type: biochemical
stated-conditions: PI3Kγ Avg. IC50
Lab note: cut-off is 200 nM. Strictly less in IC50 is Fulfilled. Exactly 200 nM or more is Not fulfilled.

Decide: IC50 of COc1ccc2c(c1)c(/C=C1\Oc3cc(O)ccc3C1=O)c(C)n2CCCN1CCCCC1 [Example 357] strictly below 200 nM?
Not fulfilled

Decide: IC50 of O=C1/C(=C/c2c(-c3ccccc3)[nH]c3ccccc23)Sc2ccccc21 [Example 274] strictly below 200 nM?
Not fulfilled

Decide: IC50 of CNC(=O)Nc1ccc2c(c1)C(=O)/C(=C/c1c(CN(C)CCN(C)C)[nH]c3ccc(OC)cc13)O2 [Compound 613] strictly below 200 nM?
Fulfilled

Decide: IC50 of CCc1cc(OC)cc2c(/C=C3\Oc4cc(O)ccc4C3=O)cn(CCCC#N)c12 [Compound 474] strictly below 200 nM?
Not fulfilled

Decide: IC50 of COc1ccc2c(c1)c(/C=C1\Oc3ccc(NC(=O)NCCN)cc3C1=O)c(-c1ccccc1)n2CCN1CCN(C)CC1 [Compound 576] strictly below 200 nM?
Fulfilled

Decide: IC50 of Cn1cc(C=C2Oc3cc(O)cc(O)c3C2=O)c2cccc([N+](=O)[O-])c21 [Example 229] strictly below 200 nM?
Not fulfilled

Decide: IC50 of CNC(=O)Nc1cc(C)c2c(c1)C(=O)/C(=C/c1c(C)n(CCN3CCN(C)CC3)c3ccc(OC)cc13)O2 [Compound 662] strictly below 200 nM?
Not fulfilled

Decide: IC50 of COc1ccc2[nH]cc(/C=C3\Oc4ccc(Br)cc4C3=O)c2c1 [Compound 522] strictly below 200 nM?
Not fulfilled
